Some molecules, each annotated with its measured melting point.
Measurement Label: melting point

molecule=O=C(O)c1cc(F)c(F)cc1NC(=O)c1cc(-c2ccc(Cl)cc2)oc1C(F)(F)F recorded_value="337 to 340 °C"
molecule="Nc1c(Cl)cc(C(O)CNCCCCCOCCc2ccccc2)cc1C(F)(F)F (configuration not stated)" recorded_value="70 to 71.5 °C"
molecule=Cc1ccc2c(-c3ccoc3)cc(=O)oc2c1 recorded_value="160 to 162 °C"
molecule=COc1cc2c(cc1OC)CN(C(=O)C13CC4CC(CC(C4)C1)C3)CC2 recorded_value="151 to 155 °C"
molecule=O=C(O)Cc1cc(-c2ccccc2)sc1NC(=O)c1ccccc1 recorded_value="121 to 122 °C"
molecule=CCOC(=O)C1=C(O)CCn2c1nc1ccccc12 recorded_value="233 to 235 °C"
molecule=COc1ccc(-c2nc(Cn3ccnn3)cs2)cc1 recorded_value="89 to 94 °C"
molecule=CCn1nc(OCCCc2ccc(OC(C)C)cc2OCc2ccc(Cl)cc2Cl)cc1CCC(=O)O recorded_value="110 to 111 °C"
molecule=CCOC(=O)C(=O)Nc1cc(C#N)cc(NC(=O)C(=O)OCC)c1 recorded_value="189 to 190 °C"
molecule="Cc1noc2cc3c(cc12)C1(CO3)C(=O)N(Cc2ncccc2C(F)(F)F)c2ccccc21 (configuration not stated)" recorded_value="221 to 222 °C"
molecule=N#CN1CCN(c2nn(S(=O)(=O)c3ccccc3)c3ccccc23)CC1 recorded_value="178 to 180 °C"
molecule=COc1ccc(/C=C/C(=O)N2CCN(C(=O)c3cc(C(F)(F)F)cc(C(F)(F)F)c3)[C@H](Cc3ccc(C)c(C)c3)C2)cc1 recorded_value="67 to 76 °C"
molecule=N#Cc1cc(-n2cnnc2)cc(C(F)(F)F)c1N recorded_value="283 °C"
molecule=Cc1ccc(OCC#CI)c(Cl)n1 recorded_value="130 to 132 °C"
molecule=Cc1cccc(N)c1C(=O)Nc1nnn[nH]1 recorded_value="248 °C"
molecule="Cc1cc2c(cc1C(=O)c1ccc(C(=O)O)cc1)C1(C)C3(C)CCC(C3)C1(C)O2 (configuration not stated)" recorded_value="238 to 239 °C"
molecule=O=C(O)C1=CC=CC(C(=O)c2ccc(O)c(O)c2)(C(=O)c2ccc(O)c(O)c2)C1 recorded_value="254 to 256 °C"
molecule=CC(C)(CCl)C(=O)COc1ccc(-c2ccc(Cl)cc2)cc1 recorded_value="67 to 68 °C"
molecule=O=C(CC(=O)C1CC1)c1ccc2snnc2c1 recorded_value="142 to 144 °C"
molecule=CCOC(=O)CON=c1c2nccc3cccc(c32)n2cccc12 recorded_value="134 °C"
molecule="COc1ccc(CSc2ccncc2)c2c1OCC2C (configuration not stated)" recorded_value="110 to 112 °C"
molecule=Cc1cc(C2=CC(=O)c3cccc(O)c3C2=O)c(C)[nH]1 recorded_value="195 to 196 °C"
molecule=N#Cc1cccc(OS(N)(=O)=O)c1 recorded_value="101 to 104 °C"
molecule="CCCN1N=C2C(=Cc3ccccc3C)CSCC2C1c1ccccc1C (configuration not stated)" recorded_value="110 to 112 °C"
molecule="Cn1c2cc(OCC(O)CO)ccc2c2c3c(c(-c4ccccc4Cl)cc21)C(=O)NC3=O (configuration not stated)" recorded_value="287 to 290 °C"
molecule=Clc1ncc(OCc2ccccc2)c2ccccc12 recorded_value="97 to 98 °C"
molecule=CCCCCn1c2ccc(C(=O)NN3CCCCC3)cc2c2ccc(OC)cc21 recorded_value="178 to 179 °C"
molecule=Cc1cc(Cn2c(-c3ccccc3)nc(Cl)c2CO)ccc1OCc1ccccc1 recorded_value="184 to 186 °C"
molecule=OCc1cnc(Cl)c(Cl)c1 recorded_value="72 to 75 °C"
molecule=CC(C)Cc1ccc2c(c1O)C(=O)c1c(ccc(CC(C)C)c1O)C2=O recorded_value="138 to 140 °C"
molecule=CC(C)OC(=O)CCc1nc(-c2ccc(Cl)cc2)co1 recorded_value="30 to 31 °C"
molecule=O=C(O)C1=CC(CF)(CF)Oc2ccc(C(F)(F)C(F)(F)F)cc21 recorded_value="173 to 174 °C"
molecule=CCOc1cc(C)cc2cc(C#N)c(=O)oc12 recorded_value="173 °C"
molecule=COc1c(C2CCN(CCCCNC(=O)c3oc(-c4ccc(C#N)cc4)nc3CO)CC2)ccc2c1CCCC2 recorded_value="160 to 162 °C"
molecule=COc1cc2ncnc(N3CCN(C(=O)Nc4ccc(N5CCOCC5)cc4)CC3)c2cc1OC recorded_value="254 to 256 °C"
molecule=O=C(c1ccc(-c2cccc3ccccc23)cc1Cl)N1Cc2cccn2Cc2ccccc21 recorded_value="115 to 118 °C"
molecule="CCCC12CCC3c4ccc(OC)cc4CCC3C1CCC2O (configuration not stated)" recorded_value="141 to 143 °C"
